target: BRD4 BD2 (Homo sapiens); assay: AlphaScreen binding assay, BRD4 Bromodomain 2
pIC50: −log10 of the molar value.
Parameter pIC50: see the listing below.

smiles.str: CC(=O)N1c2ccc(-c3cccc(S(C)(=O)=O)c3)cc2N(C(=O)c2ccco2)C[C@@H]1C
system: BRD4 BD2 (Homo sapiens)
pIC50: 6.30 to 7.30
//
smiles.str: C[C@H]1CN(C(=O)c2ccco2)c2cc(-c3ccc(C(=O)N(C)C)cc3)ccc2N1C(=O)C(F)(F)F
system: BRD4 BD2 (Homo sapiens)
pIC50: < 6.30
//
smiles.str: COc1ccc(OC(=O)N2C[C@H](C)N(C(C)=O)c3ccc(-c4cnn(C5CC5)c4)cc32)cn1
system: BRD4 BD2 (Homo sapiens)
pIC50: 6.30 to 7.30
//
smiles.str: CC(=O)N1c2ccc(-c3cn(S(=O)(=O)N(C)C)cn3)cc2N(C(=O)c2ccco2)C[C@@H]1C
system: BRD4 BD2 (Homo sapiens)
pIC50: > 7.30
//
smiles.str: CC(=O)N1c2ccc(-c3nnc(N)s3)cc2N(C(=O)c2ccco2)C[C@@H]1C
system: BRD4 BD2 (Homo sapiens)
pIC50: 6.30 to 7.30
//
smiles.str: COC(=O)Nc1cc2c(cc1-c1ccc(S(C)(=O)=O)cc1)N(C(=O)OC(C)C)C[C@H](C)N2C(C)=O
system: BRD4 BD2 (Homo sapiens)
pIC50: < 6.30
//
smiles.str: CC(=O)N1c2ccc(-c3ccc(S(C)(=O)=O)cc3)cc2N(C(=O)OC2CC(F)(F)C2)C[C@@H]1C
system: BRD4 BD2 (Homo sapiens)
pIC50: 6.30 to 7.30
